test: in vitro; conditions: ID50, MEAN, FLU-B experiments, mean
parameterMeasured: CC50 (µg/mL)
The figure you give is taken to be in µg/mL; do not add the unit.

**Query** For the compound "NC(=O)c1ncn([C@@H]2O[C@H](CO)[C@@H](O)[C@H]2O)n1" , what CC50 is on record?
**Result** 847

* * *

experiment: in vitro; details: ID50, RSV B-18537 experiment
parameterMeasured: CC50
Lab note: write values as number then unit, every time.

**Query** Bench note: what CC50 did "NC(=O)c1ncn([C@@H]2O[C@H](CO)[C@@H](O)[C@H]2O)n1" show?
**Result** 1000 µg/mL
